B1: VH:VL chains; a variant is named by its letters at X, in order (parent)
chain 1: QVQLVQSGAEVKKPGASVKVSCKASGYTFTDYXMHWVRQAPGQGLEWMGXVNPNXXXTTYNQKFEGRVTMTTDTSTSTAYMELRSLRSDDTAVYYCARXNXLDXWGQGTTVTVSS
chain 2: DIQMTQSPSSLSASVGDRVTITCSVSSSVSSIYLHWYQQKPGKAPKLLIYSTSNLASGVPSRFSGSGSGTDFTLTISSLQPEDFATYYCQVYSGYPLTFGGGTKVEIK

- Variants of: B1
- procedure_summary: yeast display scFab, FACS + sequencing
- conditions: with MET
This is one part of the list. How many sequences the whole screen found active is unknown.
property: antigen binding call

FRGKGSGD: binds
FAAAGFVA: no binding
SRGRGVGA: no binding
VKGKDVGY: no binding

Query `DKEGGSLD` yields antigen binding call of no binding

Query `YTGTSDWY` yields antigen binding call of no binding

Reference for the values: the emibetuzumab library of Makowski et al. (2022)
